assay_protocol: Selectivity index, ratio of CC50 for human MT2 cells to EC50 for HIV1 3B replication in human MT2 cells exposed to light
Format: toxicity, cell-based
test_parameters: read-out: Ratio CC50/EC50
measured_quantity: selectivity ratio

Observe how each entry below is paired with its result.
[
  {
    "chemical_string": "O=C(O)c1cc(-c2ccc(/C=C3\\SC(=S)N(CCc4ccccc4)C3=O)o2)ccc1O",
    "measured_quantity": "selectivity ratio",
    "test_result": 12
  },
  {
    "chemical_string": "O=C(O)c1cccc(-c2ccc(/C=C3\\SC(=S)N(CCc4ccccc4)C3=O)o2)c1",
    "measured_quantity": "selectivity ratio",
    "test_result": 440
  }
]

Incoming: Item under review: "O=C(O)c1cc(-c2ccc(/C=C3\SC(=S)N(CCc4ccccc4)C3=O)o2)cnc1Cl" . Reported selectivity ratio?
Outgoing: 165

Incoming: Item under review: "Cc1ccc(-c2ccc(/C=C3\SC(=S)N(CCc4ccccc4)C3=O)o2)cc1C(=O)O" . Reported selectivity ratio?
Outgoing: 426

Incoming: Item under review: "O=C(O)c1cccc(-c2ccc(/C=C3\SC(=S)N(CCc4ccccc4)C3=O)o2)c1Cl" . Reported selectivity ratio?
Outgoing: 105

Incoming: Item under review: "Cc1c(C(=O)O)cccc1-c1ccc(/C=C2\SC(=S)N(CCc3ccccc3)C2=O)o1" . Reported selectivity ratio?
Outgoing: 624

Incoming: Item under review: "O=C(O)c1cc(-c2ccc(/C=C3\SC(=S)N(CCc4ccccc4)C3=O)o2)ccc1Cl" . Reported selectivity ratio?
Outgoing: 330

Incoming: Item under review: "O=C(O)c1cc(-c2ccc(/C=C3\SC(=S)N(CCc4ccccc4)C3=O)o2)ccc1Br" . Reported selectivity ratio?
Outgoing: 10

Incoming: Item under review: "O=C(O)c1cccc(-c2ccc(/C=C3\SC(=S)N(CCc4ccccc4)C3=O)o2)c1F" . Reported selectivity ratio?
Outgoing: 835

Incoming: Item under review: "COc1ccc(-c2ccc(/C=C3\SC(=S)N(CCc4ccccc4)C3=O)o2)cc1C(=O)O" . Reported selectivity ratio?
Outgoing: 22

Incoming: Item under review: "Cc1c(C(=O)O)cncc1-c1ccc(/C=C2\SC(=S)N(CCc3ccccc3)C2=O)o1" . Reported selectivity ratio?
Outgoing: 202

Incoming: Item under review: "O=C(O)c1cc(-c2ccc(/C=C3\SC(=S)N(CCc4ccccc4)C3=O)o2)cnc1Br" . Reported selectivity ratio?
Outgoing: 40

Incoming: Item under review: "O=C(O)c1cc(-c2ccc(/C=C3\SC(=S)N(CCc4ccccc4)C3=O)o2)ccc1F" . Reported selectivity ratio?
Outgoing: 380

Incoming: Item under review: "O=C(O)c1cncc(-c2ccc(/C=C3\SC(=S)N(CCc4ccccc4)C3=O)o2)c1" . Reported selectivity ratio?
Outgoing: 915

Incoming: Item under review: "CCc1ccc(-c2ccc(/C=C3\SC(=S)N(CCc4ccccc4)C3=O)o2)cc1C(=O)O" . Reported selectivity ratio?
Outgoing: 215

====

System: MT2
assay_protocol: Cytotoxicity against human MT2 cells after 4 days by XTT assay
Type: cell-based
test_parameters: mt2, 96 h
Below, each of the compounds is paired with its reported CC50 value.
Could you give me the number in µM? Just the number is fine.

Observe how each entry below is paired with its result.
[
  {
    "chemical_string": "O=C(O)c1cccc(-c2ccc(/C=C3\\SC(=S)N(CCc4ccccc4)C3=O)o2)c1Cl",
    "quantity_unit": "µM",
    "CC50": 6.73
  },
  {
    "chemical_string": "O=C(O)c1cc(-c2ccc(/C=C3\\SC(=S)N(CCc4ccccc4)C3=O)o2)cnc1Cl",
    "quantity_unit": "µM",
    "CC50": 38.4
  },
  {
    "chemical_string": "O=C(O)c1cc(-c2ccc(/C=C3\\SC(=S)N(CCc4ccccc4)C3=O)o2)cnc1Br",
    "quantity_unit": "µM",
    "CC50": 5.53
  },
  {
    "chemical_string": "COc1ccc(-c2ccc(/C=C3\\SC(=S)N(CCc4ccccc4)C3=O)o2)cc1C(=O)O",
    "quantity_unit": "µM",
    "CC50": 28.7
  }
]

Below: the item to evaluate.
Incoming: Item under review: "O=C(O)c1cncc(-c2ccc(/C=C3\SC(=S)N(CCc4ccccc4)C3=O)o2)c1" . Reported CC50?
Outgoing: 38.4

====

Below, each of the compounds is paired with its reported EC50 value.
Test system: Human immunodeficiency virus 1
assay_protocol: Antiviral activity against HIV1 isolate 94UG103 replication in human PBMC assessed as inhibition of p24 production after 7 days by ELISA
test_parameters: Human immunodeficiency virus 1, isolate 94UG103, 168 h
Could you give me the number in nM? Just the number is fine.

Observe how each entry below is paired with its result.
[
  {
    "chemical_string": "COc1ccc(-c2ccc(/C=C3\\SC(=S)N(CCc4ccccc4)C3=O)o2)cc1C(=O)O",
    "EC50 (nM)": 2230
  },
  {
    "chemical_string": "Cc1c(C(=O)O)cccc1-c1ccc(/C=C2\\SC(=S)N(CCc3ccccc3)C2=O)o1",
    "EC50 (nM)": 648
  },
  {
    "chemical_string": "O=C(O)c1cncc(-c2ccc(/C=C3\\SC(=S)N(CCc4ccccc4)C3=O)o2)c1",
    "EC50 (nM)": 442
  },
  {
    "chemical_string": "O=C(O)c1cc(-c2ccc(/C=C3\\SC(=S)N(CCc4ccccc4)C3=O)o2)cnc1Br",
    "EC50 (nM)": 353
  },
  {
    "chemical_string": "O=C(O)c1cc(-c2ccc(/C=C3\\SC(=S)N(CCc4ccccc4)C3=O)o2)ccc1Br",
    "EC50 (nM)": 165
  }
]

Below: the item to evaluate.
Incoming: Item under review: "O=C(O)c1cccc(-c2ccc(/C=C3\SC(=S)N(CCc4ccccc4)C3=O)o2)c1F" . Reported EC50?
Outgoing: 801

====

System: MT2
assay_protocol: Cytotoxicity against human MT2 cells after 4 days by XTT assay
Format: cell-based
test_parameters: mt2, 96 h
# note: exactly 20 µM is not below, so it is FALSE; use TRUE for CC50 strictly under it

Some solved cases for reference:
[
  {
    "chemical_string": "O=C(O)c1cc(-c2ccc(/C=C3\\SC(=S)N(CCc4ccccc4)C3=O)o2)ccc1O",
    "label_value": "TRUE"
  },
  {
    "chemical_string": "O=C(O)c1cccc(-c2ccc(/C=C3\\SC(=S)N(CCc4ccccc4)C3=O)o2)c1",
    "label_value": "TRUE"
  },
  {
    "chemical_string": "O=C(O)c1cc(-c2ccc(/C=C3\\SC(=S)N(CCc4ccccc4)C3=O)o2)ccc1Cl",
    "label_value": "TRUE"
  },
  {
    "chemical_string": "Cc1c(C(=O)O)cccc1-c1ccc(/C=C2\\SC(=S)N(CCc3ccccc3)C2=O)o1",
    "label_value": "FALSE"
  },
  {
    "chemical_string": "CCc1ccc(-c2ccc(/C=C3\\SC(=S)N(CCc4ccccc4)C3=O)o2)cc1C(=O)O",
    "label_value": "TRUE"
  }
]

Incoming: Hi there! Is CC50 for "Cc1c(C(=O)O)cncc1-c1ccc(/C=C2\SC(=S)N(CCc3ccccc3)C2=O)o1" below 20 µM, do you know?
Outgoing: FALSE

Incoming: Hi there! Is CC50 for "O=C(O)c1cc(-c2ccc(/C=C3\SC(=S)N(CCc4ccccc4)C3=O)o2)ccc1F" below 20 µM, do you know?
Outgoing: FALSE

Incoming: Hi there! Is CC50 for "O=C(O)c1cc(-c2ccc(/C=C3\SC(=S)N(CCc4ccccc4)C3=O)o2)ccc1Br" below 20 µM, do you know?
Outgoing: TRUE

Incoming: Hi there! Is CC50 for "Cc1ccc(-c2ccc(/C=C3\SC(=S)N(CCc4ccccc4)C3=O)o2)cc1C(=O)O" below 20 µM, do you know?
Outgoing: FALSE

Incoming: Hi there! Is CC50 for "O=C(O)c1cccc(-c2ccc(/C=C3\SC(=S)N(CCc4ccccc4)C3=O)o2)c1F" below 20 µM, do you know?
Outgoing: FALSE

====

Tested on: Human immunodeficiency virus 1
assay_protocol: Antiviral activity against HIV1 isolate 94UG103 replication in human PBMC assessed as inhibition of p24 production after 7 days by ELISA
test_parameters: Human immunodeficiency virus 1, isolate 94UG103, 168 h
pEC50: −log10 of the molar value.
Criterion: pEC50 meeting or surpassing 7. Met: 1. Not met: -1.

[
  {
    "chemical_string": "Cc1c(C(=O)O)cncc1-c1ccc(/C=C2\\SC(=S)N(CCc3ccccc3)C2=O)o1",
    "label_value": -1
  },
  {
    "chemical_string": "O=C(O)c1cc(-c2ccc(/C=C3\\SC(=S)N(CCc4ccccc4)C3=O)o2)ccc1O",
    "label_value": -1
  },
  {
    "chemical_string": "O=C(O)c1cc(-c2ccc(/C=C3\\SC(=S)N(CCc4ccccc4)C3=O)o2)cnc1Cl",
    "label_value": -1
  },
  {
    "chemical_string": "O=C(O)c1cccc(-c2ccc(/C=C3\\SC(=S)N(CCc4ccccc4)C3=O)o2)c1Cl",
    "label_value": 1
  },
  {
    "chemical_string": "CCc1ccc(-c2ccc(/C=C3\\SC(=S)N(CCc4ccccc4)C3=O)o2)cc1C(=O)O",
    "label_value": -1
  }
]

// next entry
Incoming: Item "O=C(O)c1cc(-c2ccc(/C=C3\SC(=S)N(CCc4ccccc4)C3=O)o2)ccc1F" with pEC50 of 7 or above?
Outgoing: -1
